Form: system (human V1a receptor (Homo sapiens)), quantity (pIC50), values below.
Numbers only, as −log10 of the molar value.

// known answers, use as guide
COc1ccc(S(=O)(=O)N2C(=O)C(c3cc(C)ccc3OC)(N3C[C@H](O)C[C@H]3C(=O)N(C)C)c3cc(C#N)ccc32)c(OC(F)(F)F)c1 (single isomer, unassigned) [Example 126]
5.08
COc1ccc(S(=O)(=O)N2C(=O)C(c3cc(CN(C)C)ccc3OC)(N3C[C@H](O)C[C@H]3C(=O)N(C)C)c3cc(Cl)ccc32)c(OC(F)(F)F)c1 (single isomer, unassigned) [Example 195 A]
6.24
COc1ccc(S(=O)(=O)N2C(=O)C(O[C@@H](C)C(=O)N(C)C)(c3ccccc3OC)c3cc(Cl)ccc32)c(OC(F)(F)F)c1 (single isomer, unassigned) [Example 81]
6.17

The following molecules each have a reported value; give each one's pIC50.
1. COc1ccc(S(=O)(=O)N2C(=O)C(c3cc(C)ccc3OC)(N3C[C@H](O)C[C@H]3C(=O)N(C)C)c3cc(Cl)ccc32)c(OC(F)(F)F)c1 (single isomer, unassigned) [Example 103]
2. COc1ccc(S(=O)(=O)N2C(=O)C(c3ccccc3OC)(N(C)[C@@H](C)C(=O)N(C)C)c3cc(Cl)ccc32)c(OC(F)(F)F)c1 (single isomer, unassigned) [Example 71]
3. COc1ccc(S(=O)(=O)N2C(=O)C(N[C@@H](C)C(=O)N(C)C)(c3ccccc3OC)c3cc(Cl)ccc32)c(OC(F)(F)F)c1 (single isomer, unassigned) [Example 61]
4. COc1ccc(S(=O)(=O)N2C(=O)C(c3cc(C)ccc3OC)(N3C[C@H](O)C[C@H]3C(=O)N(C)C)c3cc(Br)cnc32)c(OC(F)(F)F)c1 (single isomer, unassigned) [Example 120]
5. COc1ccc(S(=O)(=O)N2C(=O)C(c3ccccc3OC)(N3C[C@H](O)C[C@H]3C(=O)N(C)C)c3cc(Cl)ccc32)c(OC(F)(F)F)c1 (single isomer, unassigned) [Example 2]
6. COc1ccc(S(=O)(=O)N2C(=O)C(c3cc(CCN4CCCCC4)ccc3OC)(N3C[C@H](O)C[C@H]3C(=O)N(C)C)c3cc(Cl)ccc32)c(OC(F)(F)F)c1 (single isomer, unassigned) [Example 225]
7. COc1ccc(S(=O)(=O)N2C(=O)C(c3cc(C)ccc3OC)(N3C[C@H](OCCCN(C)C)C[C@H]3C(=O)N(C)C)c3cc(Cl)ccc32)c(OC(F)(F)F)c1 (single isomer, unassigned) [Example 140]
8. COc1ccc(S(=O)(=O)N2C(=O)C(c3cc(C)ccc3OC)(N3CCCC[C@H]3C(=O)N(C)C)c3cc(Cl)ccc32)c(OC(F)(F)F)c1 (single isomer, unassigned) [Example 116]

// result
[6.30, 5.39, 5.83, 5.17, 6.13, 7.00, 6.45, 6.19]

====

Form: system (human V2 receptor (Homo sapiens, UniProt P30518)), quantity (IC50), values below.

COc1ccc(S(=O)(=O)N2C(=O)C(c3cc(C)ccc3OC)(N3C[C@H](O)C[C@H]3C(=O)N(C)C)c3cc(C#N)ccc32)c(OC(F)(F)F)c1 (single isomer, unassigned)
> 10 µM

The following compounds each have a reported value; give each one's IC50.
1. COc1ccc(S(=O)(=O)N2C(=O)C(c3cc(C)ccc3OC)(N3C[C@H](O)C[C@H]3C(=O)N(C)C)c3cc(Br)cnc32)c(OC(F)(F)F)c1 (single isomer, unassigned)
2. COc1ccc(S(=O)(=O)N2C(=O)C(c3ccccc3OC)(N3CCCC[C@H]3C(=O)N(C)C)c3cc(Cl)ccc32)c(OC(F)(F)F)c1 (single isomer, unassigned)
3. COc1ccc(S(=O)(=O)N2C(=O)C(c3cc(C)ccc3OC)(N3C[C@H](OCC(N)=O)C[C@H]3C(=O)N(C)C)c3cc(Cl)ccc32)c(OC(F)(F)F)c1 (single isomer, unassigned)
4. COc1ccc(S(=O)(=O)N2C(=O)C(c3ccccc3OC)(N3CCC[C@H]3C(=O)N(C)C)c3cc(Cl)ccc32)c(OC(F)(F)F)c1 (single isomer, unassigned)

// result
["> 10 µM", "> 10 µM", "5.65 µM", "> 10 µM"]

====

Form: system (UniProt:P30518), quantity (IC50), values below.
Numbers only, in µM.

COc1ccc(S(=O)(=O)N2C(=O)C(c3cc(CCO)ccc3OC)(N3C[C@H](O)C[C@H]3C(=O)N(C)C)c3cc(Cl)ccc32)c(OC(F)(F)F)c1 (single isomer, unassigned)
3.1

# evaluate next
Quick note, IC50 for COc1ccc(S(=O)(=O)N2C(=O)C(c3cccnc3OC)(N3C[C@H](O)C[C@H]3C(=O)N(C)C)c3cc(Cl)ccc32)c(OC(F)F)c1 (single isomer, unassigned) landed at 4.05

====

Molecular target: human V1b receptor (Homo sapiens)
Construct: expressed in transfected cells; host or cells: CHO cells
Sequence (P47901 1-424): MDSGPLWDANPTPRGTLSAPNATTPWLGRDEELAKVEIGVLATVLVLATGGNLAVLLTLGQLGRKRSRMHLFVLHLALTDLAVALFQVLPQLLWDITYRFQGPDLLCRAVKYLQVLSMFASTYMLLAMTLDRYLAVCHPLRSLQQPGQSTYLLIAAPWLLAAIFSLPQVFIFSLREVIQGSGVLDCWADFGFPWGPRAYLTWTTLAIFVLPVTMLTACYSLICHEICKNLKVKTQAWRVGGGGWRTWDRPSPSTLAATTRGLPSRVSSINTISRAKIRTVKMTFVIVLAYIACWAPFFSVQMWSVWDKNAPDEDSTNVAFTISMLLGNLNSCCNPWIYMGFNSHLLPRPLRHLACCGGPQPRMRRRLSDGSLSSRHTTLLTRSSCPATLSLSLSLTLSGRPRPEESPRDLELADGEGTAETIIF
Assay: V1b receptor binding assay ([3H](Arg8)-vasopressin, crude membranes of CHO cells)
Settings: 0.1 μmol/L test drug, V1b receptor binding assay; read-out: Rate of inhibition (V1b: % of inhibition)
REPORTED METRIC: inhibition at 0.1 µM (%)
Give bare numbers, in %.

// known answers, use as guide
COc1ccc(S(=O)(=O)N2C(=O)C(c3ccccc3OC)(N3c4ccccc4C[C@H]3C(=O)N(C)C)c3cc(Cl)ccc32)c(OC(F)(F)F)c1 (some centres unmarked) [Example 40]
66
COc1ccc(S(=O)(=O)N2C(=O)C(c3cc(C)ccc3OC)(N3C[C@H](OCC#N)C[C@H]3C(=O)N(C)C)c3cc(Cl)ccc32)c(OC(F)(F)F)c1 (single isomer, unassigned) [Example 146]
94
COc1ccc(S(=O)(=O)N2C(=O)C(c3cc(CO)ccc3OC)(N3C[C@H](O)C[C@H]3C(=O)N(C)C)c3cc(Cl)ccc32)c(OC(F)(F)F)c1 (single isomer, unassigned) [Example 203]
87
COc1ccc(S(=O)(=O)N2C(=O)C(c3cc(C)ccc3OC)(N3C[C@H](OC(C)=O)C[C@H]3C(=O)N(C)C)c3cc(Cl)ccc32)c(OC(F)(F)F)c1 (single isomer, unassigned) [Example 137]
96

# evaluate next
Quick note, inhibition at 0.1 µM for COc1ccc(C)cc1C1(N2C[C@H](O)C[C@H]2C(=O)N(C)C)C(=O)N(S(=O)(=O)c2ccc(OC)c(OC)c2OC)c2ccc(Cl)cc21 (single isomer, unassigned) [Example 176] landed at 97

====

molecular target: human V1b receptor (Homo sapiens, UniProt P47901); construct: expressed in transfected cells; host or cells: CHO cells; assay: V1b receptor binding assay ([3H](Arg8)-vasopressin, crude membranes of CHO cells); settings: 0.1 μmol/L test drug, V1b receptor binding assay; read-out: Rate of inhibition (V1b: % of inhibition)
REPORTED METRIC: inhibition at 0.1 µM (%)
Numbers only, in %.

COc1ccc(S(=O)(=O)N2C(=O)C(c3cc(C)ccc3OC)(N3C[C@H](O)C[C@H]3C(=O)N(C)C)c3cc(Cl)ccc32)c(OCC(F)(F)F)c1 (single isomer, unassigned)
95

The following compounds each have a reported value; give each one's inhibition at 0.1 µM.
1. COc1ccc(S(=O)(=O)N2C(=O)C(c3cccc4c3OCO4)(N3C[C@H](O)C[C@H]3C(=O)N(C)C)c3cc(C)ccc32)c(OC(F)(F)F)c1 (single isomer, unassigned)
2. COc1ccc(S(=O)(=O)N2C(=O)C(c3cc(C)cnc3OC)(N3C[C@H](O)C[C@H]3C(=O)N(C)C)c3cc(Cl)ccc32)c(OCC(F)(F)F)c1 (single isomer, unassigned)
3. COc1ccc(C2(N3CCCC[C@H]3C(=O)N(C)C)C(=O)N(S(=O)(=O)c3ccc(OC)cc3OC(F)(F)F)c3ccc(C)cc32)cc1 (single isomer, unassigned)
4. COc1ccc(S(=O)(=O)N2C(=O)C(c3cc(CN4CCN(C(=O)OC(C)(C)C)CC4)ccc3OC)(N3C[C@H](O)C[C@H]3C(=O)N(C)C)c3cc(Cl)ccc32)c(OC(F)(F)F)c1 (single isomer, unassigned)

// result
1: 102; 2: 93; 3: 73; 4: 53

The following compounds each have a reported value; give each one's inhibition at 0.1 µM.
1. COC(=O)[C@H](C)OC1(c2ccccc2OC)C(=O)N(S(=O)(=O)c2ccc(OC)cc2OC(F)(F)F)c2ccc(Cl)cc21 (some centres unmarked)
2. COc1ccc(S(=O)(=O)N2C(=O)C(N[C@@H](Cc3ccncc3)C(=O)N(C)C)(c3ccccc3OC)c3cc(Cl)ccc32)c(OC(F)(F)F)c1 (single isomer, unassigned)
3. COc1ccc(S(=O)(=O)N2C(=O)C(c3cc(OC)ccc3OC)(N3C[C@H](O)C[C@H]3C(=O)N(C)C)c3cc(Cl)ccc32)c(OC(F)(F)F)c1 (single isomer, unassigned)
4. COc1ccc(S(=O)(=O)N2C(=O)C(c3ccccc3C)(N3C[C@H](O)C[C@H]3C(=O)N(C)C)c3cc(Br)ccc32)c(OC(F)(F)F)c1 (single isomer, unassigned)
5. COc1ccc(S(=O)(=O)N2C(=O)C(c3cc(C)ccc3OC)(N3CCN(c4ccncc4)CC3C(=O)N(C)C)c3cc(Cl)ccc32)c(OC(F)(F)F)c1 (centres unmarked)

// result
69
72
102
95
55

The following compounds each have a reported value; give each one's inhibition at 0.1 µM.
1. COc1ccc(S(=O)(=O)N2C(=O)C(c3cc(C(C)C)ccc3OC)(N3C[C@H](O)C[C@H]3C(=O)N(C)C)c3cc(Cl)ccc32)c(OC(F)(F)F)c1 (single isomer, unassigned)
2. COc1ccc(S(=O)(=O)N2C(=O)C(NCC(=O)N3CCN(c4ccncc4)CC3)(c3ccccc3OC)c3cc(Cl)ccc32)c(OC(F)(F)F)c1 (centres unmarked)
3. C=Cc1ccccc1C1(N2C[C@H](O)C[C@H]2C(=O)N(C)C)C(=O)N(S(=O)(=O)c2ccc(OC)cc2OC(F)(F)F)c2ccc(Cl)cc21 (single isomer, unassigned)
4. COc1ccc(S(=O)(=O)N2C(=O)C(c3ccccc3OC)(N3C[C@H](F)C[C@H]3C(=O)N(C)C)c3cc(Cl)ccc32)c(OC(F)(F)F)c1 (single isomer, unassigned)

// result
[101, 77, 94, 96]

The following compounds each have a reported value; give each one's inhibition at 0.1 µM.
1. COc1ccc(S(=O)(=O)N2C(=O)C(c3cc(C)ccc3OC)(N3C[C@H](O)C[C@H]3C(=O)N(C)C)c3cc(Br)cnc32)c(OC)c1 (single isomer, unassigned)
2. COc1ccc(S(=O)(=O)N2C(=O)C(c3cc(OC)ccc3OC)(N3CCCC[C@H]3C(=O)N(C)C)c3cc(Cl)ccc32)c(OC(F)(F)F)c1 (single isomer, unassigned)
3. COc1ccc(S(=O)(=O)N2C(=O)C(c3cc(C)ccc3OC)(N3C[C@H](OCC(O)CO)C[C@H]3C(=O)N(C)C)c3cc(Cl)ccc32)c(OC(F)(F)F)c1 (some centres unmarked)
4. COc1ccc(S(=O)(=O)N2C(=O)C(c3cc(C)cnc3OC)(N3C[C@H](O)C[C@H]3C(=O)N(C)C)c3cc(Cl)ccc32)c(OC)c1OC (some centres unmarked)
5. COC(=O)[C@@H]1C[C@@H](O)CN1C1(c2ccccc2OC)C(=O)N(S(=O)(=O)c2ccc(OC)cc2OC(F)(F)F)c2ccc(Cl)cc21 (single isomer, unassigned)
6. COc1ccc(S(=O)(=O)N2C(=O)C(c3cc(CN4CCCC4)ccc3OC)(N3C[C@H](O)C[C@H]3C(=O)N(C)C)c3cc(Cl)ccc32)c(OC(F)(F)F)c1 (single isomer, unassigned)

// result
[47, 95, 89, 104, 102, 98]
